The following molecules are listed with their measured pIC50 values.
# MEASURED TARGET: MC4R (Homo sapiens, UniProt P32245)
# Sequence (P32245 whole entry): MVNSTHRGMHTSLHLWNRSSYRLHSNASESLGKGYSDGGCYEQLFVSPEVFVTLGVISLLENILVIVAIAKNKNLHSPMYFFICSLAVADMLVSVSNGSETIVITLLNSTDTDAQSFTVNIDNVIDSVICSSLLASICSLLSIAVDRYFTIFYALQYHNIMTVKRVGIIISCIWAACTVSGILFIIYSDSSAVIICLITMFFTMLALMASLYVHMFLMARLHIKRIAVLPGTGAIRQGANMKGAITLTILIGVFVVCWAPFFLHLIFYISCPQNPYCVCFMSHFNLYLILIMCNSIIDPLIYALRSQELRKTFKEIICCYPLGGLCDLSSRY
# ASSAY PROTOCOL: Assay of MC4R antagonist activity in cells in vitro (cAMP assay, Melanotan I stimulation)
# CONDITION INFO: flipin-293-MC4 cell line, Melanotan I as agonist
pIC50: −log10 of the molar value.
VALUE TYPE: pIC50

{"CPD SMILES": "COc1cc([C@@H](C)C(=O)N2C[C@@H](Nc3ccc(-c4cn5c(n4)CCC5)c(C)n3)C3(CC3)C2)c(F)cn1", "VAL": 8.47}
{"CPD SMILES": "COc1cc([C@@H](C)C(=O)N2C[C@@H](Nc3ccc(-c4cn(C)c(OC)n4)c(C)n3)C3(CC3)C2)c(Cl)cn1", "VAL": 8.83}
{"CPD SMILES": "COc1cc([C@@H](C)C(=O)N2CC[C@H](Nc3ccc(-c4nccc(C#N)n4)c(C)n3)C2)c(Cl)cn1", "VAL": 9.05}

---

# ASSAY PROTOCOL: Pharmacokinetic study on the tested compound in SD male rats
# Type: in vivo
# CONDITION INFO: Sprague-Dawley (SD), rat, plasma, IV 1 mpk/PO 2 mpk
Hi! Could you tag entries with half-life below 40 min as T, and those at or above as F? Much appreciated.

{"CPD SMILES": "COc1cc([C@@H](C)C(=O)N2C[C@H](C)[C@H](Nc3ccc(-c4ncccn4)c(C)n3)C2)c(F)cn1", "CLASS": "T"}
{"CPD SMILES": "COc1cc([C@@H](C)C(=O)N2C[C@@H](Nc3ccc(-c4ncccn4)c(C)n3)C3(CC3)C2)c(Cl)cn1", "CLASS": "F"}
{"CPD SMILES": "COc1cc([C@@H](C)C(=O)N2C[C@@H](Nc3ccc(-c4ncccn4)c(C)n3)C3(CC3)C2)c(F)cn1", "CLASS": "F"}

---

# MEASURED TARGET: CYP 3A4M (Homo sapiens)
# Construct: from tissue; host or cells: human liver microsomes (HLM)
# Sequence (P08684 whole entry): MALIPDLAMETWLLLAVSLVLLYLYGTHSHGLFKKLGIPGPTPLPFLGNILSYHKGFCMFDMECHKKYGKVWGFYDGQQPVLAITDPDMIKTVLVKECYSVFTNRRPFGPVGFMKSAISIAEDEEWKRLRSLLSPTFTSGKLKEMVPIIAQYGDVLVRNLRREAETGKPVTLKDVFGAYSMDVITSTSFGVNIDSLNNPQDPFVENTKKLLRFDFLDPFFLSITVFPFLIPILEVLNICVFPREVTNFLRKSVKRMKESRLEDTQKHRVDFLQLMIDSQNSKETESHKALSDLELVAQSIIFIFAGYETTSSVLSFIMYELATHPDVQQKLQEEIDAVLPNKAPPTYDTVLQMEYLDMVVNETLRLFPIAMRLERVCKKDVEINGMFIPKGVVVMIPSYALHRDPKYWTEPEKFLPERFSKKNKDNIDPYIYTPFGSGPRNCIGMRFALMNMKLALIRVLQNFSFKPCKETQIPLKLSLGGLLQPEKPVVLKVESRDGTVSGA
# ASSAY PROTOCOL: Inhibition of P450 enzyme (CYP 3A4, midazolam as substrate) in human liver microsomes
# Assay type: in vitro ADME
# CONDITION INFO: human liver microsomes 0.100 mg/mL, midazolam 5.00 µM as substrate, 5 min incubation; read-out: CYP 3A4M IC50
pIC50: −log10 of the molar value.

{"CPD SMILES": "COc1cc([C@@H](C)C(=O)N2CC[C@H](Nc3ccc(-c4ncccn4)c(C)n3)C2)c(Cl)cn1", "READOUT RELATION": "=", "pIC50": 5.24}
{"CPD SMILES": "COc1cc([C@@H](C)C(=O)N2C[C@@H](Nc3ccc(-c4nccc(C#N)n4)c(C)n3)C3(CC3)C2)c(F)cn1", "READOUT RELATION": "<", "pIC50": 4.52}
{"CPD SMILES": "COc1cc([C@@H](C)C(=O)N2C[C@@H](Nc3ccc(-c4ncccn4)c(C)n3)C3(CC3)C2)c(Cl)cn1", "READOUT RELATION": "=", "pIC50": 4.53}
{"CPD SMILES": "COc1cc([C@@H](C)C(=O)N2CC[C@H](Nc3ccc(-c4ncccn4)c(C)n3)C2)c(Br)cn1", "READOUT RELATION": "=", "pIC50": 5.43}
{"CPD SMILES": "COc1cc([C@@H](C)C(=O)N2CC[C@H](Nc3ccc(-c4nccc(C#N)n4)c(C)n3)C2)c(F)cn1", "READOUT RELATION": "=", "pIC50": 5.53}
